From: patent US5382596A

# measurement-target: Dopamine D2 receptor (Bos taurus)
# Sequence (P20288 whole entry): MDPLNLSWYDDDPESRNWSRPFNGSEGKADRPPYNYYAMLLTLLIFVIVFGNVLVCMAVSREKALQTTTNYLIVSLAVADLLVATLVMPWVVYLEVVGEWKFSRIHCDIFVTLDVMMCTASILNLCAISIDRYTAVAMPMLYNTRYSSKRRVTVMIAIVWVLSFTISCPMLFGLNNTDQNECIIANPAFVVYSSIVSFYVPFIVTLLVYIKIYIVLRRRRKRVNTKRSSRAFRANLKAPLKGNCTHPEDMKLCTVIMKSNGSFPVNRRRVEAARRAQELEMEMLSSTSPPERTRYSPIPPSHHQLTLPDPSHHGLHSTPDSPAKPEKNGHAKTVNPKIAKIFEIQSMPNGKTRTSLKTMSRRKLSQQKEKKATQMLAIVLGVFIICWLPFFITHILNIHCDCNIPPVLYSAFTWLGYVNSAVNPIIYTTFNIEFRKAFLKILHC
# test-summary: biochemical
# Assay type: binding, bovine
# condition: bovine caudate membranes, 3H-Spiperone, RT, 75 min; read-out: D2 K1
measured-property: Ki (µM)

[a] CCCN(CCOCC)[C@H]1CCc2c(ccc(O)c2O)C1 [Example 2]
[b] CCCN(CCC1CCCCO1)[C@H]1CCc2c(O)cccc2C1 (some centres unmarked) [Example 23]
### Prompt For the two items a and b , which reports the higher Ki value? When you have decided, please share the label of that item.
### Response a

[P] CCCN(CCOCC1CC1)[C@H]1CCc2c(ccc(O)c2O)C1 [Example 3]
[Q] CCCN(CCC1CCCO1)[C@H]1CCc2c(O)cccc2C1 (some centres unmarked) [Example 19]
### Prompt Kindly identify the item with the lower Ki figure among these two: P and Q When you have decided, please share the label of that item.
### Response P
(P: 0.065 µM, Q: 0.11 µM)

----------
# measurement-target: Dopamine D1 receptor (Bos taurus, UniProt Q95136)
# Sequence (Q95136 whole entry): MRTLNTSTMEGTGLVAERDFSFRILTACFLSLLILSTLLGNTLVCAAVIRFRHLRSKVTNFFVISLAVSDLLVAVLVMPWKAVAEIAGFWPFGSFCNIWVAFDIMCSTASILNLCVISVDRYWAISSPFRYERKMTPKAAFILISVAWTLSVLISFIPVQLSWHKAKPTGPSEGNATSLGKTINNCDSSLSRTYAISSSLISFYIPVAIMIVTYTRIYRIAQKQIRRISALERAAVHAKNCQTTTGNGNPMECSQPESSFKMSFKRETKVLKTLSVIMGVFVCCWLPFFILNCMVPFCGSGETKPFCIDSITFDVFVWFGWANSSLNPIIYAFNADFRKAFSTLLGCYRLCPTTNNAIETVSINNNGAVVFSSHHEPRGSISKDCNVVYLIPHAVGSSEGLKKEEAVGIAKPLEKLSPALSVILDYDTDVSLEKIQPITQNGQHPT
# test-summary: biochemical
# Type: binding, bovine
# condition: bovine caudate membranes, 3H-SCH23390, 37° C., 15 min; read-out: D1 K1
measured-property: Ki (µM)

The cases that follow already have their Ki on record.
{"columns": ["compound", "Ki / µM"],
 "data": [
  ["CCCN(CCC1CCCCO1)[C@H]1CCc2c(ccc(O)c2O)C1 (stereo partly drawn)", 5.49],
  ["CCCN(CCOCC1CC1)[C@H]1CCc2c(ccc(O)c2O)C1", 4.79],
  ["CCCN(CCC1CCOC1)[C@H]1CCc2c(ccc(O)c2O)C1 (stereo partly drawn)", 6.61],
  ["CCCN(CCOC1CCCC1)[C@H]1CCc2c(O)cccc2C1", 7.94],
  ["CCCOCCN(CCC)[C@H]1CCc2c(ccc(O)c2O)C1", 4.68],
  ["CCCN(CCOC(C)CC)[C@H]1CCc2c(ccc(O)c2O)C1 (stereo partly drawn)", 4.57],
  ["CCCN(CCOC(C)C)[C@H]1CCc2c(ccc(O)c2O)C1.Cl [Example 1, hydrochloride]", 7.24]
]}

[1] CCCN(CCC1CCCO1)[C@H]1CCc2c(ccc(O)c2O)C1 (stereo partly drawn)
[2] CCCCCOCCN(CCC)[C@H]1CCc2c(ccc(O)c2O)C1
### Prompt For the two items 1 and 2 , which reports the higher Ki value? When you have decided, please share the label of that item.
### Response 1
(1: 4.27 µM, 2: 2.45 µM)

----------
# measurement-target: dopamine D2 receptor (Mus musculus)
# Sequence (P61168 whole entry): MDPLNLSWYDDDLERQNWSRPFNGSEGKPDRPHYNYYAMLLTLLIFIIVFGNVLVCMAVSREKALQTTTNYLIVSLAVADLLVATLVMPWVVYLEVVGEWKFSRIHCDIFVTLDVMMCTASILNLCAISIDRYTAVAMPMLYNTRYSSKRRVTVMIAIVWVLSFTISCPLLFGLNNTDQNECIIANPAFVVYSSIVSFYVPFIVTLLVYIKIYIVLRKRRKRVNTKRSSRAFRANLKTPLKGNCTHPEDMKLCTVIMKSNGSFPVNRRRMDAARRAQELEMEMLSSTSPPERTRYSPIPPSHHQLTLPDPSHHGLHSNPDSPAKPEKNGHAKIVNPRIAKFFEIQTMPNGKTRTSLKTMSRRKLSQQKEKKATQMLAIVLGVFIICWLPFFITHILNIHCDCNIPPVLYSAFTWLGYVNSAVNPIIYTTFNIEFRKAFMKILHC
# test-summary: biochemical
# Type: biochemical
measured-property: EC50 (nM)
Write it as a number; the unit nM goes unstated.

### Prompt Lookup: EC50 / dopamine D2 receptor (Mus musculus) / CCCN(CCC)C1CCc2c(O)cccc2C1 (stereo not shown) [Example 39, 5-hydroxy-2-(di-n-propyl)aminotetralin, reference compound]
### Response 2.14

----------
# measurement-target: Dopamine D1 receptor (Bos taurus, UniProt Q95136)
# test-summary: biochemical
# Type: binding, bovine
measured-property: Ki (µM)
Write it as a number; the unit µM goes unstated.

### Prompt Sample CCCN(CCC)C1CCc2c(O)cccc2C1 (stereo not shown) [Example 39, 5-hydroxy-2-(di-n-propyl)aminotetralin, reference compound] — what was its Ki?
### Response 3.8

----------
# measurement-target: adrenergic α2 receptor (Rattus norvegicus, UniProt P22909)
# Sequence (P22909 1-465): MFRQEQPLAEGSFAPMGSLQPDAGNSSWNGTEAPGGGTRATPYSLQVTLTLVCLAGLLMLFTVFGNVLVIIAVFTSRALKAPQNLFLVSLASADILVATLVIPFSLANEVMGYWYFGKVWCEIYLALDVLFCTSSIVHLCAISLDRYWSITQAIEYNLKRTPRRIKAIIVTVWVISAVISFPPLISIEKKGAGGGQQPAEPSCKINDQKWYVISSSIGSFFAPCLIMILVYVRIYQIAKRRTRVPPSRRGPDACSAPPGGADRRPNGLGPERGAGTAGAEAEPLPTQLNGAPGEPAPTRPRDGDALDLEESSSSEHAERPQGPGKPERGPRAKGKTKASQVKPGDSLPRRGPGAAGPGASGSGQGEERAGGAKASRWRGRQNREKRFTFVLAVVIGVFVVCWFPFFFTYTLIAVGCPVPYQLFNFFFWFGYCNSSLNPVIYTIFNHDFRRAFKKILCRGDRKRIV
# test-summary: Adrenergic α2 in vitro functional test (rat vas deferens, inhibition of twitch)
# Format: biochemical
# condition: concentration that produces 50% of the maximal inhibition of twitch; rat vas deferens; read-out: a2 A50
# Procedure: Vasa deferentia from male Sprague-Dawley rats weighing between 150-250 g were removed and placed in isolated organ baths containing Krebs-Henseleitsolution under a resting tension of 1 g. All other set up conditions were identical to those used for the mouse was deferens. Tissues were pretreated with propranolol (1 μM), ascorbic acid (100 μM) and the α1 -adrenergic antagonist prazosin (0.3 or 1 μM) for 60 min before the addition of test compound.
measured-property: EC50 (µM)

{"columns": ["compound", "EC50 [µM]"],
 "data": [
  ["CCCN(CCC1CCCCO1)[C@H]1CCc2c(ccc(O)c2O)C1 (some centres unmarked) [Example 12]", 0.199]
]}

[P] CCCN(CCOCC1CC1)[C@H]1CCc2c(ccc(O)c2O)C1 [Example 3]
[Q] CCCN(CCC1CCOC1)[C@H]1CCc2c(O)cccc2C1 (some centres unmarked) [Example 24]
### Prompt Kindly identify the item with the lower EC50 figure among these two: P and Q When you have decided, please share the label of that item.
### Response Q
(Q: 0.123 µM, P: 0.195 µM)

----------
# measurement-target: UniProt P22909
# test-summary: Adrenergic α2 in vitro functional test (rat vas deferens, inhibition of twitch)
# Type: biochemical
measured-property: EC50 (nM)
Write it as a number; the unit nM goes unstated.

### Prompt Lookup: EC50 / UniProt P22909 / CCCN(CCOC)[C@H]1CCc2c(ccc(O)c2O)C1 [Example 4]
### Response 42.7

----------
# measurement-target: Dopamine D1 receptor (Bos taurus, UniProt Q95136)
# test-summary: biochemical
# Type: binding, bovine
# condition: bovine caudate membranes, 3H-SCH23390, 37° C., 15 min; read-out: D1 K1
measured-property: Ki (µM)

The cases that follow already have their Ki on record.
{"columns": ["molecule", "measured-property", "u", "readout-value"],
 "data": [
  ["CCCN(CCOC(C)(C)C)[C@H]1CCc2c(ccc(O)c2O)C1", "Ki", "µM", 8.91],
  ["CCCN(CCOCC)[C@H]1CCc2c(ccc(O)c2O)C1", "Ki", "µM", 6.31],
  ["CCCN(CCOC)[C@H]1CCc2c(ccc(O)c2O)C1", "Ki", "µM", 7.08],
  ["CCCN(CC1CCOC1)[C@H]1CCc2c(O)cccc2C1.Cl (stereo partly shown) [Example 21, hydrochloride]", "Ki", "µM", 3.63],
  ["CCCN(CCCOC)[C@H]1CCc2c(O)cccc2C1 [Example 41, reference compound]", "Ki", "µM", 11]
]}

[P] CCCN(CCOC1CC1)[C@H]1CCc2c(O)cccc2C1
[Q] CCCN(CC1CCCO1)[C@H]1CCc2c(O)cccc2C1 (stereo partly shown)
### Prompt For the two items P and Q , which reports the higher Ki value? When you have decided, please share the label of that item.
### Response Q
(Q: 16.2 µM, P: 9.77 µM)

----------
# measurement-target: dopamine D2 receptor (Mus musculus)
# test-summary: biochemical
# Assay type: biochemical
# condition: a2 A50 / D2 A50
measured-property: Specificity Ratio (a2 A50/D2 A50)

{"columns": ["molecule", "Specificity Ratio (a2 A50/D2 A50)"],
 "data": [
  ["CCCCOCCN(CCC)[C@H]1CCc2c(ccc(O)c2O)C1 [Example 8]", 398],
  ["CCCN(CCCOC(C)C)[C@H]1CCc2c(ccc(O)c2O)C1 [Example 13]", 914],
  ["CCCN(CCOC(C)(C)C)[C@H]1CCc2c(ccc(O)c2O)C1 [Example 9]", 1620]
]}

[a] CCCCCOCCN(CCC)[C@H]1CCc2c(ccc(O)c2O)C1 [Example 10]
[b] CCCOCCN(CCC)[C@H]1CCc2c(ccc(O)c2O)C1 [Example 7]
### Prompt Kindly identify the item with the lower Specificity Ratio (a2 A50/D2 A50) figure among these two: a and b When you have decided, please share the label of that item.
### Response b
(b: 186, a: 1000)

----------
# measurement-target: dopamine D2 receptor (Mus musculus)
# test-summary: biochemical
# Type: biochemical
# condition: a2 A50 / D2 A50
measured-property: Specificity Ratio (a2 A50/D2 A50)

[I] CCCN(CCC1CCCO1)[C@H]1CCc2c(ccc(O)c2O)C1 (stereo partly drawn) [Example 11]
[II] CCCN(CCOCC1CC1)[C@H]1CCc2c(ccc(O)c2O)C1 [Example 3]
### Prompt For the two items I and II , which reports the higher Specificity Ratio (a2 A50/D2 A50) value? When you have decided, please share the label of that item.
### Response II

[a] CCCN(CCOCC)[C@H]1CCc2c(ccc(O)c2O)C1 [Example 2]
[b] CCCN(CCC1CCOC1)[C@H]1CCc2c(ccc(O)c2O)C1 (stereo partly drawn) [Example 14]
### Prompt For the two items a and b , which reports the higher Specificity Ratio (a2 A50/D2 A50) value? When you have decided, please share the label of that item.
### Response b
